# neutralization IC50 per entry
# assay system: HIV-1 Env of CAP256.PI (HIV-1)
# experiment notes: cell-based or functional assay
readout type: neutralization IC50

CAP256-VRC26.09 (antibody, V domains shown) VH: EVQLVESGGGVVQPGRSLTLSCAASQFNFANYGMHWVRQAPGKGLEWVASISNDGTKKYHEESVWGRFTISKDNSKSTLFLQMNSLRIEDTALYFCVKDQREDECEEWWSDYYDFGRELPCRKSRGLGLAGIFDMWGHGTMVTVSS VL: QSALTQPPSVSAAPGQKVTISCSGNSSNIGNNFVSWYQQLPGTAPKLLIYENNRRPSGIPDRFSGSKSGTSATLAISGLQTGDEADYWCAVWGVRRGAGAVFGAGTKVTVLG : > 50 µg/mL
CAP256-VRC26.04 (antibody, V domains shown) VH: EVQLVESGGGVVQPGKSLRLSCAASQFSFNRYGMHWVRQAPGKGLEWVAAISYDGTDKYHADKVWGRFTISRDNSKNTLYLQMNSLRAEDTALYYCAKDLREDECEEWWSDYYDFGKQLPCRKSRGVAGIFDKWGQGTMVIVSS VL: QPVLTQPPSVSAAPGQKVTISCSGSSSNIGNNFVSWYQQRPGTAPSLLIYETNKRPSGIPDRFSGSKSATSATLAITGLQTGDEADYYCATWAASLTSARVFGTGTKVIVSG : > 50 µg/mL
